# ASSAYED_SYSTEM: integrin αvβ6 on NIH3T3β6 cells (NIH3T3 cells transfected with β6)
# METHOD_DESCRIPTION: FACS on NIH3T3β6 cells, geometric MFI against antibody concentration
# EC50 relative to chimeric antibody (ratio to chimeric antibody) annotations
Just the number, please, no unit after it.

Recorded results for 3 binders are shown here.
Prompt: Record request: EC50 relative to chimeric antibody (ratio to chimeric antibody) value, item humanized 1A8 antibody VH4/Vκ1 (antibody, IgG1, V domains shown) VH: QVQLVQSGAEVKKPGASVKVSCKGSSYTFTDYTMHWVRLASAKTLEWIGVIDTYYGKTNYNQKFEGRATITVDKSSSTAYMELSSLRSEDTAVYYCARGGFRRGDRPSLRYAMDSWGQGTLVTVSS VL: DIVLTQSPDSLAVSLGERATINCRASQSVSISTYSYIHWFQQKPGQPPKLLIKYASNLESGVPDRFSGSGSGTDFTLNIHPVEEEDVGIYYCQHSWEIPYTFGGGTKVEIK
Completion: 3.57

Prompt: Which EC50 relative to chimeric antibody (ratio to chimeric antibody) is listed for humanized 1A8 antibody VH1/Vκ3 (antibody, IgG1, V domains shown) VH: QVQFVQSGPELKKPGASVKVSCKGSSYTFTDYTMHWVKLAHAKTLEWIGVIDTYYGKTNYNQKFEGRATMTVDKSSSTAYMELARLRSEDSAVYYCARGGFRRGDRPSLRYAMDSWGQGTSVTVSS VL: DIVMTQSPDSLAVSLGERATINCRASQSVSISTYSYIHWFQQKPGQPPKLLIKYASNLESGVPDRFSGSGSGTDFTLKISRVEAEDVGIYYCQHSWEIPYTFGGGTKVEIK ?
Completion: 1.04

Prompt: Data request, read-out EC50 relative to chimeric antibody (ratio to chimeric antibody), for humanized 1A8 antibody VH4/Vκ2 (antibody, IgG1, V domains shown) VH: QVQLVQSGAEVKKPGASVKVSCKGSSYTFTDYTMHWVRLASAKTLEWIGVIDTYYGKTNYNQKFEGRATITVDKSSSTAYMELSSLRSEDTAVYYCARGGFRRGDRPSLRYAMDSWGQGTLVTVSS VL: DIVLTQSPDSLAVSLGERATINCRASQSVSISTYSYIHWFQQKPGQPPKLLIKYASNLESGVPDRFSGSGSGTDFTLKISRVEEEDVGIYYCQHSWEIPYTFGGGTKVEIK
Completion: 3.24

Now examine the next entry.
Prompt: Recorded EC50 relative to chimeric antibody (ratio to chimeric antibody) for humanized 1A8 antibody VH4/Vκ3 (antibody, IgG1, V domains shown) VH: QVQLVQSGAEVKKPGASVKVSCKGSSYTFTDYTMHWVRLASAKTLEWIGVIDTYYGKTNYNQKFEGRATITVDKSSSTAYMELSSLRSEDTAVYYCARGGFRRGDRPSLRYAMDSWGQGTLVTVSS VL: DIVMTQSPDSLAVSLGERATINCRASQSVSISTYSYIHWFQQKPGQPPKLLIKYASNLESGVPDRFSGSGSGTDFTLKISRVEAEDVGIYYCQHSWEIPYTFGGGTKVEIK , please?
Completion: 2.96
